Recorded measurements of switch fluorescence ratio, one per entry
# Tested on: ATP;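 also: ATP exposure 15 min at 22 °C before imaging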
# ASSAY: switch fluorescence ratio, 500 uM ATP over buffer (Cy3 cluster intensity, sum of 5 cycles each) (fold (ratio)); higher = stronger signal-on switching upon ATP binding; sequences stand for … in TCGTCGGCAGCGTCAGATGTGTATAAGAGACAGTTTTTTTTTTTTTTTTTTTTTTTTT…TC
# ASSAY_CONDITIONS: aptamer strand: ATP DNA aptamer (quencher-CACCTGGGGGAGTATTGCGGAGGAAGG + anchor), 100 nM annealed; ATP concentration: 500 uM
No unit in the answer, please; the number alone is enough.

[[record]]
polymer_sequence = "GAGAAGGGCA"
measurement_target = "ATP"
number = 1.02

[[record]]
polymer_sequence = "GCGAGATGGG"
measurement_target = "ATP"
number = 0.973

[[record]]
polymer_sequence = "TTATATTCCT"
measurement_target = "ATP"
number = 1.11


Enquiry: Hello, I am looking for reported switch fluorescence ratio with ATP for "CGGGAGAGGA" . Could you help?
Return: 0.988

Enquiry: Query switch fluorescence ratio on ATP for "GGAGACAGGA"
Return: 1.04

Enquiry: # query: switch fluorescence ratio | item "AGGTAAGCTA" | system: ATP;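 also: ATP exposure 15 min at 22 °C before imaging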
Return: 1.03

Enquiry: Which measured switch fluorescence ratio belongs to "AAGGGGGACA" , tested on ATP?;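 also: ATP exposure 15 min at 22 °C before imaging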
Return: 0.992

Enquiry: Field: switch fluorescence ratio (ATP). Entry: "ATAGCTTCAC"
Return: 1.15

Enquiry: Tell me reported switch fluorescence ratio for "CATTAGGATG" , tested with ATP.
Return: 0.994

Enquiry: Please state recorded switch fluorescence ratio (tested on ATP) of "AGTGTGAGTT"
Return: 1.02

Enquiry: So what switch fluorescence ratio did "CTTTGAGGTG" get with ATP?
Return: 1.04

Enquiry: switch fluorescence ratio of "GGTTTCCTGT" on ATP?
Return: 1.01

Enquiry: Please provide the recorded switch fluorescence ratio for "TGTGCGGGGG" , tested on ATP.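 Also: ATP exposure 15 min at 22 °C before imaging.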
Return: 1.02

Enquiry: Param readout= switch fluorescence ratio; system= ATP; entry= "CGAGCTGTTT" ; returns value.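 Also: ATP exposure 15 min at 22 °C before imaging.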
Return: 1.02

---

# Tested on: ATP;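 also: ATP exposure 15 min at 22 °C before imaging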
# ASSAY: switch fluorescence ratio, 500 uM ATP over buffer (Cy3 cluster intensity, sum of 5 cycles each) (fold (ratio)); higher = stronger signal-on switching upon ATP binding; sequences stand for … in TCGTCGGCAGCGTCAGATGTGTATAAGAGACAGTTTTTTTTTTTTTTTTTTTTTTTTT…TC
# ASSAY_CONDITIONS: aptamer strand: ATP DNA aptamer (quencher-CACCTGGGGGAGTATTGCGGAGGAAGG + anchor), 100 nM annealed; ATP concentration: 500 uM
// values below are reported switch fluorescence ratio

[[record]]
polymer_sequence = "AATAATTCTG"
result = 0.984

[[record]]
polymer_sequence = "AATTGGTGTT"
result = 0.985

[[record]]
polymer_sequence = "AACGGTTTAA"
result = 1.05

[[record]]
polymer_sequence = "AGGGATTAA"
result = 0.99

[[record]]
polymer_sequence = "ACGGGGGCTG"
result = 0.996


Enquiry: What value of switch fluorescence ratio has been recorded for this entry: "TGTAGTATCG"
Return: 1.02

Enquiry: Given the entry "TATTGAGGGG" , report its measured switch fluorescence ratio.
Return: 1

Enquiry: What value of switch fluorescence ratio has been reported for the following sequence? "GTTAGAAAAA"
Return: 1.03
